These entries and their values trace back to PubChem BioAssay AID1918944.

Below, each entry is listed alongside its reported viability, T/C.
System: 786-0 complex spheroid viability
Test: Anticancer human tumor 786-0 cell line growth inhibition;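 also: spheroids exposed to agents for seven days before readout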
Details: second compound 3.16 µM; first compound 3 µM; stronger effect = lower value
Give the value, in units of %, as a plain number.

Exercise: Entry CCN(c1cc(-c2ccc(CN3CCOCC3)cc2)cc(C(=O)NCc2c(C)cc(C)[nH]c2=O)c1C)C1CCOCC1 + NC1CCC(NC2CC2c2ccccc2)CC1 , system 786-0 complex spheroid viability: what viability, T/C was measured?
Solution: 105

Exercise: Lookup: viability, T/C / 786-0 complex spheroid viability / NS(=O)(=O)OCC1CC(n2ccc3c(NC4CCc5ccccc54)ncnc32)CC1O (stereo not given) + NC1CCC(NC2CC2c2ccccc2)CC1
Solution: 3.27

Exercise: Find viability, T/C (786-0 complex spheroid viability) for the entry CCN(c1cc(-c2ccc(CN3CCOCC3)cc2)cc(C(=O)NCc2c(C)cc(C)[nH]c2=O)c1C)C1CCOCC1 + NC1CC1c1ccc(-c2cccc(O)c2)cc1
Solution: 86.3

Continuing:
Exercise: Please state recorded viability, T/C (tested on 786-0 complex spheroid viability) of O=C(C=Cc1cccc(S(=O)(=O)Nc2ccccc2)c1)NO + NC1CC1c1ccc(-c2cccc(O)c2)cc1
Solution: 4.98

Exercise: Item COc1cc(C2c3cc4c(cc3C(OC3OC5COC(C)OC5C(O)C3O)C3COC(=O)C23)OCO4)cc(OC)c1O (stereo not given) + NC1CCC(NC2CC2c2ccccc2)CC1 with 786-0 complex spheroid viability - viability, T/C?
Solution: 7.91

Exercise: Lab note: need viability, T/C with 786-0 complex spheroid viability for entry COc1cc(C2c3cc4c(cc3C(OC3OC5COC(C)OC5C(O)C3O)C3COC(=O)C23)OCO4)cc(OC)c1O (stereo not given) + NC1CC1c1ccc(-c2cccc(O)c2)cc1 , please look it up.
Solution: 10.3

Exercise: Request - read-out viability, T/C | tested on 786-0 complex spheroid viability | compound Nc1ccccc1NC(=O)c1ccc(CNC(=O)OCc2cccnc2)cc1 + NC1CC1c1ccc(-c2cccc(O)c2)cc1
Solution: 20.7

Exercise: Look up viability, T/C with 786-0 complex spheroid viability for this compound: O=C(C=Cc1cccc(S(=O)(=O)Nc2ccccc2)c1)NO + NC1CCC(NC2CC2c2ccccc2)CC1
Solution: 6.76

Exercise: Query viability, T/C on 786-0 complex spheroid viability for NS(=O)(=O)OCC1CC(n2ccc3c(NC4CCc5ccccc54)ncnc32)CC1O (stereo not given) + NC1CC1c1ccc(-c2cccc(O)c2)cc1
Solution: 16.5

Exercise: Provide the documented viability, T/C with 786-0 complex spheroid viability as the system for Nc1ccccc1NC(=O)c1ccc(CNC(=O)OCc2cccnc2)cc1 + NC1CCC(NC2CC2c2ccccc2)CC1
Solution: 15.1

====

Test system: 786-0 complex spheroid viability
Assay: Anticancer human tumor 786-0 cell line growth inhibition;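 also: spheroids exposed to agents for seven days before readout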
Conditions: second compound 0.316 µM; first compound 0.3 µM; stronger effect = lower value
test.readout: viability, T/C (%)
Please give a number only; it is taken to be in %.

Example cases with answers are listed next.
Exercise: Report viability, T/C for O=C(C=Cc1cccc(S(=O)(=O)Nc2ccccc2)c1)NO + NC1CCC(NC2CC2c2ccccc2)CC1 tested on 786-0 complex spheroid viability.
Solution: 104

Exercise: Identify the measured viability, T/C of Nc1ccccc1NC(=O)c1ccc(CNC(=O)OCc2cccnc2)cc1 + NC1CC1c1ccc(-c2cccc(O)c2)cc1 for 786-0 complex spheroid viability.
Solution: 103

Exercise: I'm curious: which viability, T/C was measured for CCc1c2c(nc3ccc(O)cc13)-c1cc3c(c(=O)n1C2)COC(=O)[C@]3(O)CC + NC1CC1c1ccc(-c2cccc(O)c2)cc1 tested on 786-0 complex spheroid viability?
Solution: 9.44

---
Exercise: Reported viability, T/C for 786-0 complex spheroid viability, given NS(=O)(=O)OCC1CC(n2ccc3c(NC4CCc5ccccc54)ncnc32)CC1O (configuration not stated) + NC1CCC(NC2CC2c2ccccc2)CC1 ?
Solution: 15.2

Exercise: Give the reported viability, T/C for CCN(c1cc(-c2ccc(CN3CCOCC3)cc2)cc(C(=O)NCc2c(C)cc(C)[nH]c2=O)c1C)C1CCOCC1 + NC1CCC(NC2CC2c2ccccc2)CC1 (system: 786-0 complex spheroid viability).
Solution: 116

Exercise: Under 786-0 complex spheroid viability: viability, T/C value of CCN(c1cc(-c2ccc(CN3CCOCC3)cc2)cc(C(=O)NCc2c(C)cc(C)[nH]c2=O)c1C)C1CCOCC1 + NC1CC1c1ccc(-c2cccc(O)c2)cc1 ?
Solution: 103

Exercise: Quick check: viability, T/C on 786-0 complex spheroid viability, item Nc1ncn(C2CC(O)C(CO)S2)c(=O)n1 (configuration not stated) + NC1CCC(NC2CC2c2ccccc2)CC1 ?
Solution: 37

====

System: 786-0 complex spheroid viability
Assay: Anticancer human tumor 786-0 cell line growth inhibition;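 also: spheroids exposed to agents for seven days before readout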
Details: second compound 0.316 µM; first compound 0.00316 µM; stronger effect = lower value
Recorded measurements of viability, T/C, one per entry
// note: answer is a bare numeric in %

Recorded viability, T/C, per entry:
Exercise: Sample CC(C)CC(NC(=O)CNC(=O)c1cc(Cl)ccc1Cl)B1OC(=O)CC(CC(=O)O)(C(=O)O)O1 (configuration not stated) + NC1CCC(NC2CC2c2ccccc2)CC1 — what was its viability, T/C?
Solution: 121

Exercise: Query: viability, T/C; subject: CC[C@@]1(O)C(=O)OCc2c1cc1n(c2=O)Cc2cc3c(CN(C)C)c(O)ccc3nc2-1 + NC1CC1c1ccc(-c2cccc(O)c2)cc1
Solution: 73.6

Exercise: Consider the compound CC1COCCN1c1cc(-c2ccnn2C)c2ccnc(-c3ccn[nH]3)c2n1 (configuration not stated) + NC1CC1c1ccc(-c2cccc(O)c2)cc1 and give its measured viability, T/C.
Solution: 115

More entries:
Exercise: Find the recorded viability, T/C belonging to Nc1ncn(C2CC(O)C(CO)O2)c(=O)n1 (configuration not stated) + NC1CCC(NC2CC2c2ccccc2)CC1 and report it.
Solution: 127

Exercise: Query: viability, T/C; subject: CC1COCCN1c1cc(-c2ccnn2C)c2ccnc(-c3ccn[nH]3)c2n1 (configuration not stated) + NC1CCC(NC2CC2c2ccccc2)CC1
Solution: 123

Exercise: # input compound: Nc1ncn(C2CC(O)C(CO)O2)c(=O)n1 (configuration not stated) + NC1CC1c1ccc(-c2cccc(O)c2)cc1 ; wanted: its viability, T/C
Solution: 125

Exercise: Quick one: viability, T/C for CC[C@@]1(O)C(=O)OCc2c1cc1n(c2=O)Cc2cc3c(CN(C)C)c(O)ccc3nc2-1 + NC1CCC(NC2CC2c2ccccc2)CC1 ?
Solution: 78.3

====

Test system: 786-0 complex spheroid viability
Assay: Anticancer human tumor 786-0 cell line growth inhibition;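 also: spheroids exposed to agents for seven days before readout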
Conditions: second compound 1 µM; first compound 0.316 µM; stronger effect = lower value
Labelling field: enter TRUE if recorded viability, T/C is less than 90%. Enter FALSE if it equals or exceeds that cut-off.

Exercise: Item COc1cc(Nc2ncc3c(n2)-c2ccc(Cl)cc2C(c2c(F)cccc2OC)=NC3)ccc1C(=O)O + NC1CCC(NC2CC2c2ccccc2)CC1 : viability, T/C beneath 90%, strictly?
Solution: TRUE

Exercise: Consider the compound O=C(C=Cn1cnc(-c2cc(C(F)(F)F)cc(C(F)(F)F)c2)n1)NNc1cnccn1 + NC1CC1c1ccc(-c2cccc(O)c2)cc1 . Is its viability, T/C strictly less than 90%?
Solution: TRUE

Exercise: is_below(viability, T/C, 90%) for CC1(C)CCC(CN2CCN(c3ccc(C(=O)NS(=O)(=O)c4ccc(NCC5CCOCC5)c([N+](=O)[O-])c4)c(Oc4cnc5[nH]ccc5c4)c3)CC2)=C(c2ccc(Cl)cc2)C1 + NC1CCC(NC2CC2c2ccccc2)CC1 ?
Solution: FALSE

Exercise: Lab log: compare recorded viability, T/C with 90%; is it strictly lower for CC(C)c1c(-c2ccccc2)nc2c(C#N)c[nH]n2c1=O + NC1CC1c1ccc(-c2cccc(O)c2)cc1 ?
Solution: FALSE

Exercise: Please determine if COc1ccc([C@@H](O)c2cc(-c3ncnc4cc(N5CCOCC5)ccc34)c(F)cc2Cl)nn1 + NC1CCC(NC2CC2c2ccccc2)CC1 is below 90% in terms of viability, T/C.
Solution: FALSE

Exercise: viability, T/C strictly < 90% for this compound? O=C(c1cc(Cc2n[nH]c(=O)c3ccccc23)ccc1F)N1CCN(C(=O)C2CC2)CC1 + NC1CCC(NC2CC2c2ccccc2)CC1
Solution: FALSE

Exercise: # strict comparison: is reported viability, T/C < 90%? input = Nc1ncn(C2CC(O)C(CO)O2)c(=O)n1 (centres undefined) + NC1CCC(NC2CC2c2ccccc2)CC1
Solution: TRUE

Exercise: hey, is viability, T/C for O=C(C=Cn1cnc(-c2cc(C(F)(F)F)cc(C(F)(F)F)c2)n1)NNc1cnccn1 + NC1CCC(NC2CC2c2ccccc2)CC1 lower than 90% or not?
Solution: TRUE

Exercise: I'd appreciate it if you could check whether COc1ccc([C@@H](O)c2cc(-c3ncnc4cc(N5CCOCC5)ccc34)c(F)cc2Cl)nn1 + NC1CC1c1ccc(-c2cccc(O)c2)cc1 has viability, T/C smaller than 90%.
Solution: FALSE

Exercise: Is it true that viability, T/C reported for O=C(c1cc(Cc2n[nH]c(=O)c3ccccc23)ccc1F)N1CCN(C(=O)C2CC2)CC1 + NC1CC1c1ccc(-c2cccc(O)c2)cc1 is less than 90%?
Solution: FALSE

More entries:
Exercise: Could you please tell me whether viability, T/C recorded for CC(C)c1c(-c2ccccc2)nc2c(C#N)c[nH]n2c1=O + NC1CCC(NC2CC2c2ccccc2)CC1 is less than 90%?
Solution: FALSE

Exercise: Below 90% on viability, T/C? Entry CC1COCCN1c1cc(-c2ccnn2C)c2ccnc(-c3ccn[nH]3)c2n1 (centres undefined) + NC1CCC(NC2CC2c2ccccc2)CC1
Solution: TRUE
